# Target System: benzodiazepine receptor
# Experimental Details: Binding test to benzodiazepine receptor (inhibition of specific binding of tritium labeled diazepam)
# Condition Description: 2 nM tritium labeled diazepam, rat cerebral cortex, 0° C., 60 minutes; Ki calculated from IC50
This listing pairs compounds with measured Ki.
Kindly provide the numeric value in nM only, without the unit symbol.

Worked cases, answers included:
> print(dat)
                                   compound  observed.result
1  CCCCc1ccc(-n2nc3c4ccccc4[nH]cc-3c2=O)s1 [Ic1 -5]             1.53
2  Cc1ccc2[nH]cc3c(=O)n(-c4ccc(C)s4)nc-3c2c1 [Ic1 -6]             0.22
3  Cc1cc(-n2nc3c4ccc(Cl)cc4[nH]cc-3c2=O)cs1 [Ic2 -9]             0.96

Would you kindly look at the next entry?
Asked: What Ki value was documented for this compound, Cc1cc(-n2nc3c4ccccc4[nH]cc-3c2=O)cs1 [Ic2 -2] ?
Given back: 0.45
